// inhibition at 1 µM lookup, one value per entry
Target: Orexin type 1 (OX1R) receptor (Homo sapiens, UniProt O43613)
Construct: expressed in transfected cells; host or cells: CHO cells (G418 selection)
Sequence (O43613 1-425): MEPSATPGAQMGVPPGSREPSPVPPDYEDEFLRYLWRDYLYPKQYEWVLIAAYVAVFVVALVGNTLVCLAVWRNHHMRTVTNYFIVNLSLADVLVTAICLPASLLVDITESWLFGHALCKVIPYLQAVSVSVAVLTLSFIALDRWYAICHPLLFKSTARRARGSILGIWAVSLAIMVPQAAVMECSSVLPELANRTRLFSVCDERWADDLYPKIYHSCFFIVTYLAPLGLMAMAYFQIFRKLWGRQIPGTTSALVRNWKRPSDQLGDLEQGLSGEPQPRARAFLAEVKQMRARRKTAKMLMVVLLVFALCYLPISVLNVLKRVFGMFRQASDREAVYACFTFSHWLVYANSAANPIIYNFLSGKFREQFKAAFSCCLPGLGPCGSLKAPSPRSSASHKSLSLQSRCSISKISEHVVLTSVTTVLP
Assay: In vitro orexin antagonism assay: intracellular calcium measurement (FLIPR), orexin-A 3 nM as agonist
Type: cell-based
Settings: read-out: OX1R, % Inh. @ 1 uM
Just the number in %, nothing appended.

[
  {
    "COMPOUND": "O=C(c1c(-c2ccccc2)nc2ccc(F)cn12)N1CCC[C@H]1Cn1ccc(-c2ccccn2)n1 [Example 73]",
    "TESTED_TARGET": "Orexin type 1 (OX1R) receptor (Homo sapiens, UniProt O43613)",
    "VALUE_TYPE": "inhibition at 1 µM",
    "RESULT_NUMBER": 82
  }
]

The value of inhibition at 1 µM recorded for O=C(c1c(-c2ccccc2)nc2ccccn12)N1CCC[C@H]1CNc1ccc(F)cn1 [Example 33] when tested on Orexin type 1 (OX1R) receptor (Homo sapiens, UniProt O43613) reads 4.8

The value of inhibition at 1 µM recorded for C[C@@]1(COc2ccc(C(F)(F)F)cn2)CCCN1C(=O)c1nc2ccccn2c1-c1ccccc1 [Example 144] when tested on Orexin type 1 (OX1R) receptor (Homo sapiens, UniProt O43613) reads 98

The value of inhibition at 1 µM recorded for O=C(c1c(-c2ccccc2)nc2cc(C(F)(F)F)ccn12)N1CCC[C@H]1Cn1cc(-c2ccccc2)cn1 [Example 80] when tested on Orexin type 1 (OX1R) receptor (Homo sapiens, UniProt O43613) reads 87
